assay-target: Adrenergic receptor alpha-2 (Rattus norvegicus, UniProt P22086+P19328+P22909)
Sequence (P22086 whole entry): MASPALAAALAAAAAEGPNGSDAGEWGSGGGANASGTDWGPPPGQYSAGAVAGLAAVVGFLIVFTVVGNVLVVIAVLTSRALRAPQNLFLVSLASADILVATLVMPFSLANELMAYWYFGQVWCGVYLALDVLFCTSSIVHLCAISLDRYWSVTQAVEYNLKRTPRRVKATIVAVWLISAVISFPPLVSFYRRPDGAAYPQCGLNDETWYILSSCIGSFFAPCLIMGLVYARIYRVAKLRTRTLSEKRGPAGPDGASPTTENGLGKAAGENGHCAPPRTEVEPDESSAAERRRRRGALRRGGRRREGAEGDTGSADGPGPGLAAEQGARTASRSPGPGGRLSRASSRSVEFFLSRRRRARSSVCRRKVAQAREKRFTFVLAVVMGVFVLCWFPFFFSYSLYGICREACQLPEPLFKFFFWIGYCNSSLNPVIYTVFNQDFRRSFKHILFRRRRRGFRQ
Sequence (P19328 whole entry): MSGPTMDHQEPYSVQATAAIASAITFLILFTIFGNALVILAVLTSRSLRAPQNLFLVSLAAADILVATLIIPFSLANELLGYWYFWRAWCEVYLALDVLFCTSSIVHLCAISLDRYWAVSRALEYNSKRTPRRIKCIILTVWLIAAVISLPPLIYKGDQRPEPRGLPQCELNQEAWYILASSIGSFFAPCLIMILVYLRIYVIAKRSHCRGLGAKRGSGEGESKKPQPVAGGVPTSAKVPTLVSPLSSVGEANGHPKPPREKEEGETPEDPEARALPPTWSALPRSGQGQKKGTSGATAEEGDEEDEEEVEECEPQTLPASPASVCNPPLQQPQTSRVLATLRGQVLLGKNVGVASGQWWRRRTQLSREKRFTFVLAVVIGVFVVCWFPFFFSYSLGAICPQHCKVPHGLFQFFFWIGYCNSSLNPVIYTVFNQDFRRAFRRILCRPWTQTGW
Sequence (P22909 whole entry): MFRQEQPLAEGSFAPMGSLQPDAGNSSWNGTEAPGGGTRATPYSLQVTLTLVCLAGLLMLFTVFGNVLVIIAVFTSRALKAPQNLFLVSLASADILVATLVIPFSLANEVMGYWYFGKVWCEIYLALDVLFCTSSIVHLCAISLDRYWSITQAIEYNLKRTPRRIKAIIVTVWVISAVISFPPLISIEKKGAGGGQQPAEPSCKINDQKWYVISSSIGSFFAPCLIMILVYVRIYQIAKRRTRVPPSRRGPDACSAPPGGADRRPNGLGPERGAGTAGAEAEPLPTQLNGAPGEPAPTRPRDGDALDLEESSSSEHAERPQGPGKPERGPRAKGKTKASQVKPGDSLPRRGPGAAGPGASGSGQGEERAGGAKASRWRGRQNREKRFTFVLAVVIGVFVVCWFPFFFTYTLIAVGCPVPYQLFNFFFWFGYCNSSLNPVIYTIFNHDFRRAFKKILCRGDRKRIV
test-name: Displacement of [3H]rauwolscine from alpha-2 adrenergic receptor in rat cerebral cortex
Assay type: tissue-based
property: Ki (nM)
Answer format: numeric, nM implied, no suffix.

COc1ccccc1N1CCN(CCn2nc(-c3ccc(C)cc3)c3ccccc3c2=O)CC1 | 578

Fill in: Ki of Cc1ccc(-c2nn(CCN3CCN(c4ccccc4OC(C)C)CC3)c(=O)c3ccccc23)cc1 is ___
1301

What do you have for Cc1ccc(-c2nn(CCN3CCN(c4ccccc4)CC3)c(=O)c3ccccc23)cc1 ?
4262

What do you have for CCOc1ccccc1N1CCN(CCCCn2nc(-c3ccc(C)cc3)c3ccccc3c2=O)CC1 ?
60.47

What do you have for Cc1ccc(-c2nn(CCCCCCCN3CCN(c4cccc(Cl)c4)CC3)c(=O)c3ccccc23)cc1 ?
430

What do you have for CCOc1ccccc1N1CCN(CCCCCCCn2nc(-c3ccc(C)cc3)c3ccccc3c2=O)CC1 ?
889

What do you have for Cc1ccc(-c2nn(CCCCN3CCN(c4cccc(C(F)(F)F)c4)CC3)c(=O)c3ccccc23)cc1 ?
186.5

What do you have for Cc1ccc(-c2nn(CCCCN3CCN(c4ccccc4)CC3)c(=O)c3ccccc23)cc1 ?
186

What do you have for CCOc1ccccc1N1CCN(CCn2nc(-c3ccc(C)cc3)c3ccccc3c2=O)CC1 ?
867

---

assay-target: Serotonin 1a (5-HT1a) receptor/Adrenergic receptor alpha-1 (Rattus norvegicus) (UniProt P15823+P23944+P43140+P19327)
test-name: Selectivity for alpha-1 adrenergic receptor over 5HT1A serotonergic receptor in rat cerebral cortex
Assay type: tissue-based
Ratio Ki of 20 or higher: 1.0. Under 20: 0.0.

Worked examples follow.
Cc1ccc(-c2nn(CCCCN3CCN(c4ncccn4)CC3)c(=O)c3ccccc23)cc1 | 0.0
COc1ccccc1N1CCN(CCCCn2nc(-c3ccc(C)cc3)c3ccccc3c2=O)CC1 | 0.0
Cc1ccc(-c2nn(CCCCN3CCN(CC4COc5ccccc5O4)CC3)c(=O)c3ccccc23)cc1 (centres undefined) | 0.0
CCOc1ccccc1N1CCN(CCn2nc(-c3ccc(C)cc3)c3ccccc3c2=O)CC1 | 1.0
Cc1ccc(-c2nn(CCCCN3CCN(c4ccccc4)CC3)c(=O)c3ccccc23)cc1 | 0.0
COc1ccccc1N1CCN(CCCCCCCn2nc(-c3ccc(C)cc3)c3ccccc3c2=O)CC1 | 0.0

Quick check, Ratio Ki >= 20? Cc1ccc(-c2nn(CCN3CCN(c4ccccc4)CC3)c(=O)c3ccccc23)cc1
1.0

What do you have for Cc1ccc(-c2nn(CCCCCCCN3CCN(c4cccc(Cl)c4)CC3)c(=O)c3ccccc23)cc1 ?
0.0

What do you have for Cc1ccc(-c2nn(CCCCN3CCN(c4cccc(Cl)c4)CC3)c(=O)c3ccccc23)cc1 ?
0.0

---

assay-target: Adrenergic receptor alpha-1 (Rattus norvegicus, UniProt P15823+P23944+P43140)
test-name: Displacement of [3H]prazosin from alpha-1 adrenergic receptor in rat cerebral cortex
Format: tissue-based
Attribute: Ki
Answer format: numeric, nM implied, no suffix.

Worked examples follow.
Cc1ccc(-c2nn(CCCCCCCN3CCN(c4cccc(Cl)c4)CC3)c(=O)c3ccccc23)cc1 | 37
COc1ccccc1N1CCN(CCCCCCCn2nc(-c3ccc(C)cc3)c3ccccc3c2=O)CC1 | 8.4
Cc1ccc(-c2nn(CCCCN3CCN(c4cccc(C(F)(F)F)c4)CC3)c(=O)c3ccccc23)cc1 | 111.6
Cc1ccc(-c2nn(CCCCN3CCN(c4ncccn4)CC3)c(=O)c3ccccc23)cc1 | 270
Cc1ccc(-c2nn(CCCCN3CCN(c4ccccc4)CC3)c(=O)c3ccccc23)cc1 | 23.9
Cc1ccc(-c2nn(CCN3CCN(c4ccccc4)CC3)c(=O)c3ccccc23)cc1 | 25.3

Fill in: Ki of Cc1ccc(-c2nn(CCCCN3CCN(c4ccccc4OC(C)C)CC3)c(=O)c3ccccc23)cc1 is ___
1.07

---

assay-target: Serotonin 1a (5-HT1a) receptor/Adrenergic receptor alpha-1 (Rattus norvegicus) (UniProt P15823+P23944+P43140+P19327)
test-name: Selectivity for alpha-1 adrenergic receptor over 5HT1A serotonergic receptor in rat cerebral cortex
Assay type: tissue-based
// assign fulfilled if Ratio Ki falls strictly below 80, else not fulfilled (ties count as not fulfilled)

CCOc1ccccc1N1CCN(CCCCCCCn2nc(-c3ccc(C)cc3)c3ccccc3c2=O)CC1 | fulfilled

Would you kindly verify if Ratio Ki of Cc1ccc(-c2nn(CCCCN3CCN(c4ccccc4OC(C)C)CC3)c(=O)c3ccccc23)cc1 is strictly less than 80?
fulfilled

What do you have for Cc1ccc(-c2nn(CCN3CCN(c4ccccc4OC(C)C)CC3)c(=O)c3ccccc23)cc1 ?
not fulfilled

What do you have for Cc1ccc(-c2nn(CCCCCCCN3CCN(c4cccc(C(F)(F)F)c4)CC3)c(=O)c3ccccc23)cc1 ?
fulfilled

What do you have for COc1ccccc1N1CCN(CCn2nc(-c3ccc(C)cc3)c3ccccc3c2=O)CC1 ?
not fulfilled

What do you have for CCOc1ccccc1N1CCN(CCCCn2nc(-c3ccc(C)cc3)c3ccccc3c2=O)CC1 ?
fulfilled

These data points were gathered from ChEMBL document CHEMBL1147682.
